Entries and their pIC50
molecular target: GST-PLK2 (Homo sapiens); construct: purchased CarnaBio; assay: PLK TR-FRET peptide assay, PLK2; format: biochemical; details: PLK TR-FRET peptide assay, GST-PLK2; read-out: Plk2 IC50
Sequence (Q9NYY3 whole entry): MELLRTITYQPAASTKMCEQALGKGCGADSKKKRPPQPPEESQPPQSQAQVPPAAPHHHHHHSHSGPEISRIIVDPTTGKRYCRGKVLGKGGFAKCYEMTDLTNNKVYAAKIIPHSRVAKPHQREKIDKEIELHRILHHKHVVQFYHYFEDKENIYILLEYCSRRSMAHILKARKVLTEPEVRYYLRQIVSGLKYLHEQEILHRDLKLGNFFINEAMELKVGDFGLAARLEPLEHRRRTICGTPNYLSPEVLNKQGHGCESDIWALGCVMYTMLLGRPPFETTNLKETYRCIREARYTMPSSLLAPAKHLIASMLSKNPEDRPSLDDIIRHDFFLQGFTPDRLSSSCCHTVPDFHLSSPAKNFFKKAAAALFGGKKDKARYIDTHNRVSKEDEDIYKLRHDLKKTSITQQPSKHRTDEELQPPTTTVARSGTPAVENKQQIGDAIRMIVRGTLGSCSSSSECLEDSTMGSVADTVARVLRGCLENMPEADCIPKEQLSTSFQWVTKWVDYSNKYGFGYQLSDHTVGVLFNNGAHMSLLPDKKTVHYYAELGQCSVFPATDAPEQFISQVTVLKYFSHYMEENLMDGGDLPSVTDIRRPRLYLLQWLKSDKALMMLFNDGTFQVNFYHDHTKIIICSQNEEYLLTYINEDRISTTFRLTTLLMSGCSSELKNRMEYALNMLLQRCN
pIC50: −log10 of the molar value.

Example entries and their recorded answers appear below.
{"TEST_SMILES": "CC[C@@H]1C(=O)N(C)c2cnc(-n3cnc(CC#N)c3)nc2N1C1CCCC1", "TEST_TARGET": "GST-PLK2 (Homo sapiens)", "OBSERVED_MEASUREMENT": "> 6.00"}
{"TEST_SMILES": "CC[C@]12COCCN1c1nc(-c3cn[nH]c3-c3nccs3)ncc1N(C)C2=O", "TEST_TARGET": "GST-PLK2 (Homo sapiens)", "OBSERVED_MEASUREMENT": "4.30 to 5.00"}
{"TEST_SMILES": "CC[C@@H]1C(=O)N(C)c2cnc(-c3ccncc3)nc2N1C1CCC1", "TEST_TARGET": "GST-PLK2 (Homo sapiens)", "OBSERVED_MEASUREMENT": "> 6.00"}
{"TEST_SMILES": "CC[C@@H]1C(=O)N(C)c2cnc(-n3ncnc3-c3ccn[nH]3)nc2N1C(C)C", "TEST_TARGET": "GST-PLK2 (Homo sapiens)", "OBSERVED_MEASUREMENT": "> 6.00"}

[ask] Record CC[C@@]12COCCN1c1nc(-c3[nH]nnc3-c3ccccc3)ncc1N(C)C2=O : what is its pIC50 with GST-PLK2 (Homo sapiens)?
[reply] 5.00 to 6.00

[ask] I'm curious: which pIC50 was measured for CC[C@@H]1C(=O)N(C)c2cnc(-n3ccnc3)nc2N1C(C)C tested on GST-PLK2 (Homo sapiens)?
[reply] > 6.00

[ask] Param readout= pIC50; system= GST-PLK2 (Homo sapiens); entry= CC[C@@H]1C(=O)N(C)c2cnc(-n3ccnc3-c3nccs3)nc2N1C1CCOCC1 ; returns value.
[reply] > 6.00

[ask] # returns recorded pIC50 (system: GST-PLK2 (Homo sapiens)) for CC[C@@H]1C(=O)N(C)c2cnc(-n3cnc(C(=O)N4CCOCC4)c3)nc2N1C1CCCC1
[reply] > 6.00

---

biological target: GST-PLK3 (Homo sapiens); construct: purchased CarnaBio; test: PLK TR-FRET peptide assay, PLK3; assay type: biochemical; conditions: PLK TR-FRET peptide assay, GST-PLK3; read-out: Plk3 IC50
READOUT_TYPE: IC50

[ask] Requested field: IC50. Item: CC[C@@]12COCCN1c1nc(-c3ccncc3-c3ccccc3)ncc1N(C)C2=O [Example 394]
[reply] 1 to 10 µM

[ask] Look up IC50: CC[C@@H]1C(=O)N(C)c2cnc(-n3cnc(-c4cccnc4)c3)nc2N1C1CCCC1 [Example 59]
[reply] 1 to 10 µM

[ask] Fill blank: measured IC50 of the compound CC[C@@]12COCCN1c1nc(-c3[nH]nnc3-c3ccccc3)ncc1N(C)C2=O [Example 373] is ____.
[reply] 1 to 10 µM

---

In this section, each of the molecules is paired with its reported pIC50.
molecular target: GST-PLK3 (Homo sapiens, UniProt Q9H4B4); construct: purchased CarnaBio; experiment: PLK TR-FRET peptide assay, PLK3; type: biochemical; details: PLK TR-FRET peptide assay, GST-PLK3; read-out: Plk3 IC50
Sequence (Q9H4B4 whole entry): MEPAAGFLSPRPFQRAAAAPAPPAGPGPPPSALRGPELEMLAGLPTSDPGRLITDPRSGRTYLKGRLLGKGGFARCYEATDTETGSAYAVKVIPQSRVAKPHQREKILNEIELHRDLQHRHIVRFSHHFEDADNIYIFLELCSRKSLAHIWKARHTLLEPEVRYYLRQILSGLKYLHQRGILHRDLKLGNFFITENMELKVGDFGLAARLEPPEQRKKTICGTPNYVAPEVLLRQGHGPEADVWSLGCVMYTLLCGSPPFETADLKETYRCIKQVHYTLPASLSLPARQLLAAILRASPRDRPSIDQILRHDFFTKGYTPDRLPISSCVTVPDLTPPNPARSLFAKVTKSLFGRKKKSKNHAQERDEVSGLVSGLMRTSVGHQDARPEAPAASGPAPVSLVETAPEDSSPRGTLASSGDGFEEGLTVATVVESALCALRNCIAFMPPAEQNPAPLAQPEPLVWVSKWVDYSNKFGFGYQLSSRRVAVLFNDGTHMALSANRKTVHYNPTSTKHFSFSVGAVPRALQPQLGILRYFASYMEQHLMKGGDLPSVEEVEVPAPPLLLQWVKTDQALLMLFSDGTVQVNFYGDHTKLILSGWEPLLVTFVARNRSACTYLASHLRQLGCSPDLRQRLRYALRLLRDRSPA
pIC50: −log10 of the molar value.

Solved entries (count: 2):
{"MOLECULE": "CC[C@@H]1C(=O)N(C)c2cnc(-c3ccncc3-c3ccccc3)nc2N1C(C)C [Example 110]", "pIC50": "> 6.00"}
{"MOLECULE": "CC[C@@]12COCCN1c1nc(-c3snnc3-c3ccccc3)ncc1N(C)C2=O [Example 368]", "pIC50": "5.00 to 6.00"}

# evaluate next
[ask] Consider the molecule CC[C@@H]1C(=O)N(C)c2cnc(-n3ccnc3-c3ccccc3)nc2N1C1CCOC1 (stereo partly drawn) [Example 182] and give its measured pIC50.
[reply] > 6.00
